Below: a set of entries, each annotated with reported GI50.
- test.target: Del/T790M Ba/F3 cell line (Homo sapiens, UniProt P00533, DEL746-750/T790M, cells depend on it)
- Sequence (P00533 with tags, fused parts or gaps DEL746-750/T790M): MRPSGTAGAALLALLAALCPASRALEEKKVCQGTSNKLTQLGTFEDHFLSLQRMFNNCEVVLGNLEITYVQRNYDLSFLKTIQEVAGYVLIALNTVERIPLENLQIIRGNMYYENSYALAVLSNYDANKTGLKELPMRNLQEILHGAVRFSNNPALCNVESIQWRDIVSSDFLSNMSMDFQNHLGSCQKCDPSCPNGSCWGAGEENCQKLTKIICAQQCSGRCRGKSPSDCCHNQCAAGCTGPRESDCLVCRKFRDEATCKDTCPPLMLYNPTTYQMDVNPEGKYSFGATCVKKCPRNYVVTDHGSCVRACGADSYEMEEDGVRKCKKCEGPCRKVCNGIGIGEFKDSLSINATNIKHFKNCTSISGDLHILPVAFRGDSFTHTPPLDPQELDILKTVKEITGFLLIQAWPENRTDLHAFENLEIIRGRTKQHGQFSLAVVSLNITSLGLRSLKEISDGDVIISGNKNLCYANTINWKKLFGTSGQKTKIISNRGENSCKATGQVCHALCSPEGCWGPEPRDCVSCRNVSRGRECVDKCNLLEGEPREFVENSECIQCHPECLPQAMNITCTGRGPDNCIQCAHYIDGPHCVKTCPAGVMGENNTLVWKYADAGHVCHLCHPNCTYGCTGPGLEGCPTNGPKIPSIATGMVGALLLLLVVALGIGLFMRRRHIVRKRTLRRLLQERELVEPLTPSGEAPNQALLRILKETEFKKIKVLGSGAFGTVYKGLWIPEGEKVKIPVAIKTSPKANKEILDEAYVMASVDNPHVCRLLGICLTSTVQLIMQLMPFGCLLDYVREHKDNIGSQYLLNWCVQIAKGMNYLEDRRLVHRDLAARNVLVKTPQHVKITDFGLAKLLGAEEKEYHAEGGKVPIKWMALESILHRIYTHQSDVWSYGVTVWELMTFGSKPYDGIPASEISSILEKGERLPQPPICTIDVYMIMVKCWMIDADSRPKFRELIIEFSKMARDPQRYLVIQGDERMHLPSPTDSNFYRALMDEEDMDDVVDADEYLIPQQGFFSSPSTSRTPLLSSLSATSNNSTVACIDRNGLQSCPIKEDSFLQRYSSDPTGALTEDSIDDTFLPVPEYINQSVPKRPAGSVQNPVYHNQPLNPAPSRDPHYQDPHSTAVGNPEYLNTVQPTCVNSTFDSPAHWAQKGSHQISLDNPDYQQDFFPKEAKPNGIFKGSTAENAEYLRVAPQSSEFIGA
- assay.comment: Ba/F3 cell proliferation model
- Type: cell-based, murine
- test.settings: compound alone; read-out: Del/T790M IC50

{"compound": "O=C(Nc1nccs1)[C@@H](c1ccccc1)N1Cc2ccc(-c3ccc(N4CCNCC4)cc3F)cc2C1=O [Compound I-120]", "GI50": "1 to 10 µM"}
{"compound": "O=C(Nc1nccs1)[C@@H](c1ccccc1)N1Cc2ccc(-c3ccccc3F)cc2C1=O [Compound I-75]", "GI50": "1 to 10 µM"}
{"compound": "O=C(Nc1nccs1)[C@@H](c1ccccc1)N1Cc2ccc(-c3ccc(CN4CCNCC4)cc3)cc2C1=O [Compound I-121]", "GI50": "1 to 10 µM"}
{"compound": "O=C(Nc1nccs1)[C@H](c1ccccc1)N1Cc2ccc(-c3ccccc3F)cc2C1=O [Compound I-113]", "GI50": "> 10 µM"}

###

- test.target: EGFR T790M/L858R Ba/F3 cell line (Homo sapiens, UniProt P00533, T790M/L858R, cells depend on it)
- Sequence (P00533 whole entry T790M/L858R): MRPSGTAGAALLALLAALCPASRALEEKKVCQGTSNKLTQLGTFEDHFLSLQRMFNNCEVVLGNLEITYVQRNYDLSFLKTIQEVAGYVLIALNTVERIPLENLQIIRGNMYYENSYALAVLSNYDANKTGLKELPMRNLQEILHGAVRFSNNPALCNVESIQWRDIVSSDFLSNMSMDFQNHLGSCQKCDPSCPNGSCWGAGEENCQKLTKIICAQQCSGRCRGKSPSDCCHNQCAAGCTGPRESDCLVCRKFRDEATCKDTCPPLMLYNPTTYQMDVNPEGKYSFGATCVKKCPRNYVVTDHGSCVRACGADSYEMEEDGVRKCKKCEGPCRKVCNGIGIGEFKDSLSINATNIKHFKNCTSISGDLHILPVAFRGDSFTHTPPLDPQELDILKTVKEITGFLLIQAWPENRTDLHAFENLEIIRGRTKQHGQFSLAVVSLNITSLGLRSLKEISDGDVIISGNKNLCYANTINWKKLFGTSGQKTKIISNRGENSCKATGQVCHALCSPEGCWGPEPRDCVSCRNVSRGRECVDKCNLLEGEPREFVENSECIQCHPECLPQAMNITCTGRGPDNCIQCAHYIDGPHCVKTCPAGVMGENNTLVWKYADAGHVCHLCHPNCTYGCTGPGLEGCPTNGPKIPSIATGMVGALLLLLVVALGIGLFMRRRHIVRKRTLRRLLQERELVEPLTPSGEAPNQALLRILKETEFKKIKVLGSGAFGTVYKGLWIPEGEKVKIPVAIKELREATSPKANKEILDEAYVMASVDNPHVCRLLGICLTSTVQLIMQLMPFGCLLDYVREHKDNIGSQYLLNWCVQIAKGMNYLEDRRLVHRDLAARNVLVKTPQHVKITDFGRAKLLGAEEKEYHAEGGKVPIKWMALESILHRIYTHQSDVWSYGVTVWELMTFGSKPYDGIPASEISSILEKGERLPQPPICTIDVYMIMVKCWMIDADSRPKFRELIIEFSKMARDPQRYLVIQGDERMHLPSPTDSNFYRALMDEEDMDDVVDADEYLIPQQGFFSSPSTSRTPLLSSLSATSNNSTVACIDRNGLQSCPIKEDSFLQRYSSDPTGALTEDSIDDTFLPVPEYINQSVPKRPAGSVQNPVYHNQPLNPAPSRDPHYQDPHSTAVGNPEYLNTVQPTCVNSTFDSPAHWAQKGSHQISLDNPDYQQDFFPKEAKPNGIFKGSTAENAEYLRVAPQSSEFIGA
- assay.comment: Ba/F3 cell proliferation model
- Format: cell-based, murine
- test.settings: read-out: L858R/T790M Cetuximab IC50; in combination with Cetuximab
Below: a set of entries, each annotated with reported GI50.
measurement.name: GI50

{"molecule": "O=C(Nc1nccs1)C(c1cccc(F)c1)N1Cc2ccc(-c3ccc4[nH]ccc4c3)cc2C1=O (stereo not shown)", "readout.value": "< 500 nM"}
{"molecule": "O=C(Nc1nccs1)[C@@H](c1ccccc1)N1Cc2ccc(-c3cnc4ccccc4c3)cc2C1=O", "readout.value": "< 500 nM"}
{"molecule": "O=C(Nc1nccs1)[C@@H](c1ccccc1)N1Cc2ccc(-c3ccc(CN4CCNCC4)cc3)cc2C1=O", "readout.value": "< 500 nM"}
{"molecule": "O=C(Nc1nccs1)[C@@H](c1ccccc1)N1Cc2ccc(-c3ccc4c(c3)OCCO4)cc2C1=O", "readout.value": "< 500 nM"}
{"molecule": "O=C(Nc1nccs1)[C@H](c1ccccc1)N1Cc2ccc(-c3ccccc3F)cc2C1=O", "readout.value": "< 500 nM"}
{"molecule": "O=C(Nc1nccs1)[C@@H](c1ccccc1)N1Cc2ccc(-c3ccccc3F)cc2C1=O", "readout.value": "< 500 nM"}
{"molecule": "CN1CCN(c2ccc(-c3ccc4c(c3)C(=O)N([C@@H](C(=O)Nc3nccs3)c3ccccc3)C4)cc2)CC1", "readout.value": "< 500 nM"}

###

- test.target: Del/T790M Ba/F3 cell line (Homo sapiens, UniProt P00533, DEL746-750/T790M, cells depend on it)
- assay.comment: Ba/F3 cell proliferation model
- Format: cell-based, murine
- test.settings: compound alone; read-out: Del/T790M IC50
Below: a set of entries, each annotated with reported GI50.
measurement.name: GI50

{"smiles.repr": "O=C(Nc1nccs1)[C@@H](c1ccccc1)N1Cc2ccc(-c3ccc4[nH]ccc4c3)cc2C1=O", "measurement.name": "GI50", "readout.value": "> 10 µM"}
{"smiles.repr": "O=C(Nc1nccs1)[C@@H](c1ccccc1)N1Cc2ccc(-c3ccc(N4CCNCC4)cc3)cc2C1=O", "measurement.name": "GI50", "readout.value": "1 to 10 µM"}
{"smiles.repr": "CN1CCN(c2ccc(-c3ccc4c(c3)C(=O)N([C@@H](C(=O)Nc3nccs3)c3ccccc3)C4)cc2)CC1", "measurement.name": "GI50", "readout.value": "1 to 10 µM"}
{"smiles.repr": "O=C(Nc1nccs1)[C@H](c1ccccc1)N1Cc2ccc(-c3ccc(N4CCNCC4)cc3)cc2C1=O", "measurement.name": "GI50", "readout.value": "1 to 10 µM"}

###

- test.target: Del/T790M Ba/F3 cell line (Homo sapiens, UniProt P00533, DEL746-750/T790M, cells depend on it)
- assay.comment: Ba/F3 cell proliferation model
- Assay type: cell-based, murine
- test.settings: read-out: Del/T790M Cetuximab IC50; in combination with Cetuximab

{"molecule": "O=C(Nc1nccs1)[C@@H](c1ccccc1)N1Cc2ccc(-c3ccc(N4CCNCC4)cc3F)cc2C1=O [Compound I-120]", "GI50": "1 to 10 µM"}
{"molecule": "CC(C)(C)OC(=O)N1CCN(c2ccc(-c3ccc4c(c3)C(=O)N([C@@H](C(=O)Nc3nccs3)c3ccccc3)C4)c(F)c2)CC1 [Compound I-119]", "GI50": "> 10 µM"}
{"molecule": "CN1CCN(c2ccc(-c3ccc4c(c3)C(=O)N([C@@H](C(=O)Nc3nccs3)c3ccccc3)C4)cc2)CC1 [Compound I-69]", "GI50": "1 to 10 µM"}
{"molecule": "O=C(Nc1nccs1)[C@@H](c1ccccc1)N1Cc2ccc(-c3ccc4c(c3)OCCO4)cc2C1=O [Compound I-65]", "GI50": "> 10 µM"}
{"molecule": "O=C(Nc1nccs1)[C@H](c1ccccc1)N1Cc2ccc(-c3ccc(N4CCNCC4)cc3)cc2C1=O [Compound I-115]", "GI50": "1 to 10 µM"}
{"molecule": "O=C(Nc1nccs1)[C@H](c1ccccc1)N1Cc2ccc(-c3ccccc3F)cc2C1=O [Compound I-113]", "GI50": "> 10 µM"}
{"molecule": "O=C(Nc1nccs1)[C@@H](c1ccccc1)N1Cc2ccc(-c3ccc(CN4CCNCC4)cc3)cc2C1=O [Compound I-121]", "GI50": "1 to 10 µM"}
{"molecule": "O=C(Nc1nccs1)[C@@H](c1ccccc1)N1Cc2ccc(-c3ccc4[nH]ccc4c3)cc2C1=O [Compound I-66]", "GI50": "1 to 10 µM"}
{"molecule": "O=C(Nc1nccs1)[C@@H](c1ccccc1)N1Cc2ccc(-c3ccc(N4CCNCC4)cc3)cc2C1=O [Compound I-68]", "GI50": "1 to 10 µM"}
{"molecule": "O=C(Nc1nccs1)[C@@H](c1ccccc1)N1Cc2ccc(-c3cnc4ccccc4c3)cc2C1=O [Compound I-70]", "GI50": "> 10 µM"}
{"molecule": "COc1cc(OC)cc(-c2ccc3c(c2)C(=O)N([C@@H](C(=O)Nc2nccs2)c2ccccc2)C3)c1 [Compound I-79]", "GI50": "> 10 µM"}
{"molecule": "CN(C)CCNC(=O)c1ccc(-c2ccc3c(c2)C(=O)N([C@@H](C(=O)Nc2nccs2)c2ccccc2)C3)cc1 [Compound I-81]", "GI50": "1 to 10 µM"}
{"molecule": "O=C(Nc1nccs1)C(c1cccc(F)c1)N1Cc2ccc(-c3ccc4[nH]ccc4c3)cc2C1=O (stereo not drawn) [Compound I-122]", "GI50": "> 10 µM"}
{"molecule": "O=C(Nc1nccs1)[C@@H](c1ccccc1)N1Cc2ccc(-c3ccccc3F)cc2C1=O [Compound I-75]", "GI50": "1 to 10 µM"}
{"molecule": "O=C(Nc1nccs1)[C@H](c1ccccc1)N1Cc2ccc(-c3ccc4[nH]ccc4c3)cc2C1=O [Compound I-112]", "GI50": "> 10 µM"}
